Test system: HCT-116 colon
METHOD_DESCRIPTION: NCI tumour cell line growth inhibition, 48 h; in the data active means GI50 below about 0.43 µM; inactive means the rest
Labels: YES = active, NO = inactive

COMPOUND	EXPERIMENTAL_TARGET	CLASS_NAME
Clc1ccc(/C=C2\CCCC3C2=Nc2ccccc2NC3c2ccc(Cl)cc2)cc1 (stereo not drawn)	HCT-116 colon	NO
COC(=O)[C@@H](C[C@H](Cc1ccccc1)NC(=O)c1csc([C@@H](C[C@H](C(C)C)N(C)C(=O)[C@@H](NC(=O)[C@H]2CCCCN2C)C(C)C)OC(C)=O)n1)NC(=O)OCc1ccccc1	HCT-116 colon	YES
Cc1c2cnccc2c(C)c2c1c1cc(CO)ccc1n2C	HCT-116 colon	YES
CO[C@H](C(=O)[C@@H](O)[C@@H](C)O)[C@@H]1Cc2cc3cc(O[C@H]4C[C@@H](O[C@H]5C[C@@H](O)[C@H](O)C(C)O5)[C@H](O)C(C)(O)O4)cc(O)c3c(O)c2C(=O)[C@H]1O[C@H]1C[C@@H](O[C@H]2C[C@@H](O[C@H]3C[C@@H](OC)[C@H](O)C(C)O3)[C@@H](O)C(C)O2)[C@H](O)C(C)O1 (stereo partly drawn)	HCT-116 colon	NO
CCN(CC)CCOc1ccc(/C=C2\CC3C4CC=C5C[C@@H](N6CCCC6)CC[C@]5(C)C4CC[C@]3(C)[C@H]2OC(C)=O)cc1OC (stereo partly drawn)	HCT-116 colon	YES
Cc1nc2cc(-n3c(-c4ccc(F)cc4)nc4ccccc4c3=O)ccc2n1Cc1ccccc1	HCT-116 colon	NO
Cc1c(C(=O)O)n(-c2ccc(Cl)cc2)c2ncnc(N)c12	HCT-116 colon	NO
CC1(C)C(=O)/C(=C\c2ccccn2)C[C@]2(C)[C@H]3CC[C@@H]4[C@@H](C(=O)/C=C/c5ccccn5)CC[C@@]4(C)[C@]3(C)CC[C@@H]12	HCT-116 colon	YES
CCOC(=O)c1cc2c(c3ccsc13)C1(C)CCC3c4ccc(OC)cc4CCC3C1C2 (stereo not drawn)	HCT-116 colon	NO
COc1ccc(/C=C/C(=O)c2cccc(B(O)O)c2)cc1O	HCT-116 colon	NO
CCCCCCNC(=O)Nc1ccc2cc3ccc(NC(=O)NCCCCCC)cc3nc2c1	HCT-116 colon	YES
CN([O-])c1nc(N(C)[O-])nc(N2CCOCC2)n1.CN([O-])c1nc(N(C)[OH2+])nc(N2CCOCC2)n1.[Fe+3]	HCT-116 colon	NO
C[C@@H](O)[C@H]1C(=O)N2C(C(=O)O)=C(SCCN=CN)C[C@H]12	HCT-116 colon	NO

* * *

Tested on: M14 melanoma
METHOD_DESCRIPTION: NCI tumour cell line growth inhibition, 48 h
ATTRIBUTE_MEASURED: TGI

                                   compound    result
0    CN(C)c1ccc(/C=C/c2ccc3ccccc3[n+]2C)cc1   17.1 µM
1  CCCNC(=O)C(C)(Cl)C(=O)c1ccccc1O (configuration not stated)  > 100 µM
2  O=c1[nH]nc(Cc2ccccc2)n1/N=C\CC/C=N\n1c(Cc2ccccc2)n[nH]c1=O  > 100 µM
3  Cc1cc(C)c2c(=O)n(CN3CCC(C#N)(c4ccccc4)CC3)sc2n1  > 100 µM
4  CCOC(=O)C1=C(C)N(c2ccc(OC)cc2)C2(O)C=CC(=O)C3C(=O)N(c4ccccc4)C(=O)C132 (configuration not stated)   5.39 µM
5  O=C1c2ccccc2CCC1C(O)(C(F)(F)F)C(F)(F)F (configuration not stated)  > 100 µM
6  O=C1c2ccc(O)cc2OC(c2cc(O)c(O)c(O)c2)C1O (configuration not stated)  > 100 µM
